- experiment: melting temperature; fluorescence melt of hairpins on a sequencing array, two-state fit, raised by 9.35 °C to match UV melts
- recorded.conditions: sodium 0.088 M
measurement.label: Tm (°C)

# sequence.record, measurement.label, observed
records = [
    ("GCGCATCCGAAAGGACGC (((..(((....))))))", "Tm", 50.2),
    ("GGAAACCCGAAAGGGTCC (((..(((....))))))", "Tm", 35),
    ("GTCAGCGAAAGCTGCGAC ((((((....)))..)))", "Tm", 55.2),
    ("GCCGAGCGAAAGCCCAGC ((.(.((....)).).))", "Tm", 35.8),
    ("GCGTGCGAAAGCAATCGC ((((((....)))..)))", "Tm", 52.7),
]

* * *

- experiment: folding enthalpy; higher = less favourable; fluorescence melt of hairpins on a sequencing array, two-state fit
- recorded.conditions: sodium 0.088 M

# sequence.record, folding enthalpy, kcal/mol
data = [
    ("GCGAAGGGAAACCTTCAC (.(((((....))))).)", -18.1),
    ("GGGTTCGAAAGAATACCC ((((((....)))..)))", -24.9),
    ("GCACGGCGAAAGCACTGC (((..((....))..)))", -20.1),
    ("GCGAACCCGAAAGGGCGC (((..(((....))))))", -21.4),
]

* * *

Recorded measurements of Tm, one per entry
- experiment: melting temperature; fluorescence melt of hairpins on a sequencing array, two-state fit, raised by 9.35 °C to match UV melts
- recorded.conditions: sodium 0.088 M

# sequence.record, Tm (°C)
data = [
    ("GATCTGTCATCAGATC ((((((....))))))", 50.1),
    ("GGAAGGCGAAAGCCCTCC (((.(((....))).)))", 48.7),
    ("GATCAGCTGCCTGATC ((((((....))))))", 50.5),
    ("GGCCACGAAAGTGAGGCC ((((((....)))..)))", 58.3),
    ("GGCCTGCGAAAGCAAGCC (((.(((....))).)))", 58.5),
    ("GCTCCCGAAAGGGTGAGC ((((((....)))..)))", 48.8),
    ("GCGAACTCGAAAGAGCGC (((..(((....))))))", 49.3),
    ("GACAGCGGAAACGCCGTC (((.(((....))).)))", 50.6),
    ("GGTCTGCGAAAGCATACC (((.(((....))).)))", 49.4),
    ("GATCGGAAAGCCGATC ((((((....))))))", 51.3),
    ("GCCTCCGGAAACAGAGGC (((((.(....).)))))", 48.7),
    ("GATCTGGACCAGATC ((((((...))))))", 49.9),
]

* * *

Recorded measurements of folding enthalpy, one per entry
- experiment: folding enthalpy; higher = less favourable; fluorescence melt of hairpins on a sequencing array, two-state fit
- recorded.conditions: sodium 0.088 M
measurement.label: folding enthalpy

# sequence.record, observed
records = [
    ("GGTAGCGAAAGCTGTACC ((((((....)))..)))", "-19.9 kcal/mol"),
    ("GACCCCGAAAGGGGAGTC ((((((....)))..)))", "-9.87 kcal/mol"),
    ("GATGGAGGAAACTTCATC ((((.((....)).))))", "-37.5 kcal/mol"),
    ("GATCATTTGCATGATC ((((((....))))))", "-34.4 kcal/mol"),
    ("GATCAGACCCCTGATC ((((((....))))))", "-34.7 kcal/mol"),
    ("GTTAAGGGAAACCTTAAC (((((((....)))))))", "-39.2 kcal/mol"),
    ("GTGTAAGGAAACTTACGC (.(((((....))))).)", "-25.7 kcal/mol"),
]

* * *

Recorded measurements of Tm, one per entry
- experiment: melting temperature; fluorescence melt of hairpins on a sequencing array, two-state fit, raised by 9.35 °C to match UV melts
- recorded.conditions: sodium 0.088 M

# sequence.record, Tm / °C
records = [
    ("GAGCGGCGAAAGCCACTC (((.(((....))).)))", 58),
    ("GATCCCATCGGGGATC ((((((....))))))", 59.9),
    ("GCTCCGCGAAAGCCGGGC ((.(.((....)).).))", 50),
    ("GGGGGTCGAAAGACACCC (((.(((....))).)))", 67.4),
    ("GGATGTCCGAAAGGATCC (((..(((....))))))", 32.2),
    ("GCATCTACGAAAGTATGC (((..(((....))))))", 34.6),
    ("GATCCGGCAGCGGATC ((((((....))))))", 59.4),
    ("GTTAGAGGAAACTCTGAC ((.((((....)))).))", 37.1),
    ("GGAGATGGAAACATCTTC (.(((((....))))).)", 44.6),
    ("GACAACGAAAGTTTCGTC ((((((....)))..)))", 32.8),
]

* * *

Recorded measurements of Tm, one per entry
- experiment: melting temperature; fluorescence melt of hairpins on a sequencing array, two-state fit, raised by 9.35 °C to match UV melts
- recorded.conditions: sodium 0.088 M

# sequence.record, Tm (°C)
records = [
    ("GGACAGCCGAAAGGCTCC (((..(((....))))))", 31.2),
    ("GTCCCACGAAAGTGAGAC (((.(((....))).)))", 49.4),
    ("GATCCATTAGTGGATC ((((((....))))))", 53),
    ("GTAAATCCGAAAGGATAC (((..(((....))))))", 33.8),
    ("GCCGGCGCGAAAGCGGGC (((..(((....))))))", 63),
    ("GATCTACTAATAGATC ((((((....))))))", 38.9),
    ("GAAGGCGGAAACGCCTCC (.(((((....))))).)", 42.3),
    ("GTACACGAAAGTGTTAC ((((((....))).)))", 42.5),
    ("GGGGAGGGAAACTTCCCC (((((.(....).)))))", 50.9),
    ("GATCCACTACTGGATC ((((((....))))))", 49.7),
    ("GTTTCGCGAAAGCGGAAC (((.(((....))).)))", 59.2),
    ("GTGATGCGAAAGCAACAC (((.(((....))).)))", 56.4),
    ("GGGTCCTCGAAAGAGCCC (((..(((....))))))", 40),
    ("GATCACACCCGTGATC ((((((....))))))", 57.8),
    ("GATCTGCATGCAGATC ((((((....))))))", 62.4),
    ("GATCTCTGAAGAGATC ((((((....))))))", 54.2),
    ("GTCGCACGAAAGTGAGAC (((.(((....))).)))", 59.5),
    ("GGCTGCCGAAAGGCGCC (((.(((....))))))", 68.3),
    ("GATCATCGCTATGATC ((((((....))))))", 47.2),
    ("GATTGCGCGAAAGCGATC (((..(((....))))))", 32),
    ("GATCTCCGAGAGATC ((((((...))))))", 51),
    ("GCAGTGCGAAAGCAAAGC ((..(((....)))..))", 51.3),
]

* * *

- experiment: folding enthalpy; higher = less favourable; fluorescence melt of hairpins on a sequencing array, two-state fit
- recorded.conditions: sodium 0.088 M

# sequence.record, folding enthalpy, kcal/mol
data = [
    ("GCGTCGAGACGC ((((....))))", -25.2),
    ("GAGTCCGAAAGGAGTCTC ((((((....)))..)))", -25.1),
    ("GGCTCCGAAAGGAAGGCC ((((((....)))..)))", -29.7),
    ("GTCGTCGAAAGACACGAC ((((((....)))..)))", -16.7),
    ("GAGGTCCGAAAGGAGCTC (((.(((....))).)))", -35.5),
    ("GTTCGACGAAAGTCTAAC (((.(((....))).)))", -24.8),
    ("GATCCGGGTGCGGATC ((((((....))))))", -41),
    ("GCAACGCGAAAGCCATGC (((..((....))..)))", -7.42),
    ("GGCGGCGGAAACACCGCC (((((.(....).)))))", -21.9),
    ("GAAACCGGAAACGGTCTC ((.((((....)))).))", -14.2),
    ("GATCTACTTGTAGATC ((((((....))))))", -41.1),
    ("GTCTAGGAAACTAGAC ((((((....))))))", -39.2),
    ("GCATATCCGAAAGGATGC (((..(((....))))))", -15.2),
    ("GGCACGGGAAACCGTGTC (.(((((....))))).)", -34.6),
    ("GATCTGTTTACAGATC ((((((....))))))", -44.4),
    ("GGAAATGGAAACACTTCC ((((.((....)).))))", -31.5),
    ("GAGCATGGAAACATGCTC (((((((....)))))))", -37.1),
    ("GTGGGCGAAAGCCACAC ((((((....))).)))", -14.4),
    ("GAAGCCGAAAGGCTCTTC ((((((....)))..)))", -20.8),
    ("GGGCCAGGAAACTGACCC (((.(((....))).)))", -40),
    ("GCCTAGCGAAAGCGTGGC (((..((....))..)))", -30.2),
    ("GCCGTCGAAAGACTAGGC ((((((....)))..)))", -35.5),
    ("GTCACTGGAAACAGTAAC ((.((((....)))).))", -15.6),
    ("GGTGACGGAAACGCCACC ((((.((....)).))))", -48),
    ("GGTGACGAAAGTCAACC ((((((....))).)))", -19.6),
    ("GATCCTTAAGAGGATC ((((((....))))))", -38.1),
    ("GATCTCATAGAGATC ((((((...))))))", -38.3),
    ("GGAACTGGAAACGGTTTC (.(((.(....).))).)", -17.9),
    ("GGGCAACGAAAGTTACCC (((.(((....))).)))", -38.9),
]
